- Study Target: IL-17A(FLAG-Tagged): IL-17RA(His-Tagged) binding (Homo sapiens, UniProt Q16552, K93Q)
- Sequence (Q16552 with tags, fused parts or gaps K93Q): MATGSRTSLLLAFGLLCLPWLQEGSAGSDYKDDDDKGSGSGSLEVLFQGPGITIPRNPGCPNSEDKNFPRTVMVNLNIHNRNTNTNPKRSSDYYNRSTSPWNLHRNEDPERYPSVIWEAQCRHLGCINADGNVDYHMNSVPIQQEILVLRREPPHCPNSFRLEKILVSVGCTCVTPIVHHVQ
- Measurement Notes: IL-17A(FLAG-tagged):IL-17RA(His-tagged) binding disruption Eu-HTRF assay, Protocol 1
- Applied Conditions: FLAG-IL-17A 2.5 nM; average if tested more than once
pIC50: −log10 of the molar value.
Endpoint Name: pIC50

Entry CC(C)(OC[C@H](NC(=O)c1nonc1C1CC1)c1cn2ncc(CN3CC(F)(F)CNC3=O)cc2n1)C(F)(F)F [Example 17] — recorded pIC50 = > 7.30

O=C(N[C@H](c1cn2ncc([C@@H](C3CC3)N3CC(F)(F)CNC3=O)cc2n1)C1CCC(F)(F)CC1)c1nonc1C1CC1 [Example 7] yielded pIC50 of > 7.30

pIC50 recorded for this compound, Cc1nonc1C(=O)N[C@H](c1cn2ncc([C@@H](C3CC3)N3CC(F)(F)CNC3=O)cc2n1)C1CCC(F)(F)CC1 [Example 8] , is > 7.30

pIC50 in this record for CC1(F)CNC(=O)N(Cc2cnn3cc([C@@H](NC(=O)c4nonc4C4CC4)C4CCC(F)(F)CC4)nc3c2)C1 (single isomer, unassigned) [Example 2] : 7.00 to 7.30

// CC1(F)CNC(=O)N(Cc2cnn3cc([C@@H](NC(=O)c4nonc4C4CC4)C4CCC(F)(F)CC4)nc3c2)C1 (single isomer, unassigned) [Example 1] : pIC50 value = > 7.30

Reported pIC50 of CC(c1cnn2cc([C@@H](NC(=O)c3nonc3C3CC3)C3CCC(F)(F)CC3)nc2c1)N1CC(F)(F)CNC1=O (single isomer, unassigned) [Example 92] : < 7.00

The recorded pIC50 for entry O=C(N[C@H](c1cn2ncc(CN3CC(C(F)(F)F)CNC3=O)cc2n1)C1CCC(F)(F)CC1)c1nonc1C1CC1 (single isomer, unassigned) [Example 5] equals > 7.30

Quick note, pIC50 for O=C(N[C@H](c1cn2ncc(CN3CC(F)(F)CNC3=O)cc2n1)C1CCC(F)(F)CC1)c1cnn(CC2CC2)n1 [Example 24] landed at < 7.00

get_value(item= CC1CCCN(Cc2cnn3cc([C@@H](NC(=O)c4ccnn4C(C)C)C4CCC(F)(F)CC4)nc3c2)C(=O)N1 (single isomer, unassigned) [Example 95] , readout=pIC50) returns < 7.00

Lab note: O=C(N[C@H](c1cn2ncc(CN3CC(F)(F)CNC3=O)cc2n1)C1CCC(F)(F)CC1)c1conc1COC(F)F [Example 22] gave pIC50 of 7.00 to 7.30

The value of pIC50 measured for the compound COCC(c1cnn2cc([C@H](COC(C)(C)C(F)(F)F)NC(=O)c3nonc3C)nc2c1)N1CC(F)(F)CNC1=O (single isomer, unassigned) [Example 15] turned out to be > 7.30

Reported pIC50 for O=C(N[C@H](c1cn2ncc(CN3CC(C(F)(F)F)CNC3=O)cc2n1)C1CCC(F)(F)CC1)c1nonc1C1CC1 (single isomer, unassigned) [Example 6] was < 7.00

Form field pIC50, entry COC[C@H](c1cnn2cc([C@@H](NC(=O)c3nonc3C3CC3)C3CCC(F)(F)CC3)nc2c1)N1CC(F)(F)CNC1=O [Example 11] : > 7.30

So, O=C(N[C@H](c1cn2ncc(CN3CC(F)(F)CNC3=O)cc2n1)C1CCC(F)(F)CC1)c1cnn(CCC(F)(F)F)n1 [Example 27] ? Its pIC50 was < 7.00

Just so you know, measured pIC50 for Cc1nonc1C(=O)N[C@H](c1cn2ncc(CN3CC(C)(C)CNC3=O)cc2n1)C1CCC(F)(F)CC1 [Example 32] came out at < 7.00

Sample O=C(N[C@H](c1cn2ncc(CN3CCCCNC3=O)cc2n1)C1CCC(F)(F)CC1)c1nonc1C1CC1 [Example 30] ; pIC50 observed: 7.00 to 7.30

For O=C(N[C@H](c1cn2ncc(CN3CCCNC3=O)cc2n1)C1CCC(F)(F)CC1)c1nonc1C1CC1 [Example 18] the compound record lists pIC50 as < 7.00

Per the records, this compound ( CC1(C)CNC(=O)N(Cc2cnn3cc([C@@H](NC(=O)c4nonc4C4CC4)C4CCC(F)(F)CC4)nc3c2)C1 [Example 33] ) has pIC50 equal to 7.00 to 7.30

The recorded pIC50 for CC(C)n1nccc1C(=O)N[C@H](c1cn2ncc([C@@H](C3CC3)N3CC(F)(F)CNC3=O)cc2n1)C1CCC(F)(F)CC1 [Example 10] is 7.00 to 7.30

Entry under test: O=C(N[C@H](c1cn2ncc(CN3CC(F)(F)CNC3=O)cc2n1)C1CCC(F)(F)CC1)c1nonc1C1CC1 [Example 20] . Its pIC50 was > 7.30

Field pIC50 (entry CC(C)n1ncnc1C(=O)N[C@H](c1cn2ncc(CN3CC(F)(F)CNC3=O)cc2n1)C1CCC(F)(F)CC1 [Example 23] ) reads < 7.00

Quick note, pIC50 for CC1CCCN(Cc2cnn3cc([C@@H](NC(=O)c4nonc4C4CC4)C4CCC(F)(F)CC4)nc3c2)C(=O)N1 (single isomer, unassigned) [Example 97] landed at 7.00 to 7.30

The compound CC(C)n1nccc1C(=O)N[C@H](c1cn2ncc(CN3CCCCNC3=O)cc2n1)C1CCC(F)(F)CC1 [Example 31] showed pIC50 equal to < 7.00

# pIC50 (compound: [2H]C([2H])([2H])C([2H])([2H])n1nccc1C(=O)N[C@H](c1cn2ncc([C@@H](COC)N3CC(F)(F)CNC3=O)cc2n1)C1CCC(F)(F)CC1 [Example 13] ) is 7.00 to 7.30

Reported pIC50 ( [2H]C([2H])([2H])C([2H])([2H])n1nccc1C(=O)N[C@H](c1cn2ncc(CN3CC(F)(F)CNC3=O)cc2n1)C1CCC(F)(F)CC1 [Example 25] ) = 7.00 to 7.30
